Target: CDK2/A (Homo sapiens)
Assay: Kinase panel (Novartis)
Format: biochemical
Measure Name: IC50 (µM)
Give bare numbers, in µM.

Value of measured IC50 for the entry `Cn1cc(C2=C(c3coc4ccccc34)C(=O)NC2=O)c2cc(Br)ccc21` : 3.98

----------
Target: FAK (Homo sapiens, UniProt Q05397)
Sequence (Q05397 whole entry, species assumed): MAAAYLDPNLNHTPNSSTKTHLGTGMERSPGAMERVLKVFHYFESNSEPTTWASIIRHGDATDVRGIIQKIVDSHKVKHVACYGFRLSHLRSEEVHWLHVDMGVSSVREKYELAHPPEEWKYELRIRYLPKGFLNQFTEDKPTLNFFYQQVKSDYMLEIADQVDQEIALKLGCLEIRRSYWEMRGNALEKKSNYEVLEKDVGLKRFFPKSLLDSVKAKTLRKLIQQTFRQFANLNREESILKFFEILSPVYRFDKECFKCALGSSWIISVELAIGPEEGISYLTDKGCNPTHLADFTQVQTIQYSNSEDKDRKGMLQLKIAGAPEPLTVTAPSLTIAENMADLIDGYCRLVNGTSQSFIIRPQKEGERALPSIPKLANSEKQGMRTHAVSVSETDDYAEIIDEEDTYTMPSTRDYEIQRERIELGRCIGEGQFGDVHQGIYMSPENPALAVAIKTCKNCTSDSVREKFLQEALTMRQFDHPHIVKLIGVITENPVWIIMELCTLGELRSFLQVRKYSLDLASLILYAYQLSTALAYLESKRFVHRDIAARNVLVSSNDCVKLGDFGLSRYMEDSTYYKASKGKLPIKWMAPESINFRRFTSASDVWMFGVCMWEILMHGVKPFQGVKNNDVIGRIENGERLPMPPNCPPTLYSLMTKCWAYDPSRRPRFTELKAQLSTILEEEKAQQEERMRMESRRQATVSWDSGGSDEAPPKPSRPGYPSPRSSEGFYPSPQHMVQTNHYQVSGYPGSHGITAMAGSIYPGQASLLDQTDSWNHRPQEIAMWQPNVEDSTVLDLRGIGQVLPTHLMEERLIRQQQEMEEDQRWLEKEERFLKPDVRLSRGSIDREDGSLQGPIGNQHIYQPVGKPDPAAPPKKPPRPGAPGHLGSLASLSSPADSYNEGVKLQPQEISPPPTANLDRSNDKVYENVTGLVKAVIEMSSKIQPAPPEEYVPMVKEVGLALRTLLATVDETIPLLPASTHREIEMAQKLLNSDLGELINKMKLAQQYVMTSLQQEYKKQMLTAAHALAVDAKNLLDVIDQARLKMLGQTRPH
Experiment: Kinase panel (Novartis)
Format: biochemical
Measure Name: IC50

>>> result("Cn1cc(C2=C(c3coc4ccccc34)C(=O)NC2=O)c2cc(Br)ccc21")
"> 10 µM"

Form field, IC50 with FAK (Homo sapiens, UniProt Q05397), item `Cn1cc(C2=C(c3coc4ccccc34)C(=O)NC2=O)c2ccc(O)cc21` : > 10 µM

----------
Kindly supply the reported inhibition at 10 µM values for the records listed here.
Biological target: PDK1 (Homo sapiens)
Sequence (O15530 whole entry): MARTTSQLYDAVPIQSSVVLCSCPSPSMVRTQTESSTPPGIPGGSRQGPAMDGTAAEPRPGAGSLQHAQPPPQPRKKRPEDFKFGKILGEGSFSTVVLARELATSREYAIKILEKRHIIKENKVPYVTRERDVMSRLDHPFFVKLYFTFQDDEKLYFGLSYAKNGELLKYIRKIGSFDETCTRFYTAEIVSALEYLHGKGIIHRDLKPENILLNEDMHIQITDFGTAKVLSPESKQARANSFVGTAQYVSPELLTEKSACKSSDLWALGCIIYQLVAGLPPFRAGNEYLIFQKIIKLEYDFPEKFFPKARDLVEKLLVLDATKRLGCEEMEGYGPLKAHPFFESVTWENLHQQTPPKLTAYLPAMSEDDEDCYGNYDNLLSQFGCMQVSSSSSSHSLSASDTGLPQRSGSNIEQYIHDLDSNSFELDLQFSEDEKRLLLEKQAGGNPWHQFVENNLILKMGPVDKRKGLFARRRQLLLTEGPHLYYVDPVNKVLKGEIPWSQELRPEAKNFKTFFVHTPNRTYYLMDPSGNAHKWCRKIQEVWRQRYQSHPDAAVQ
Assay: Inhibition of various kinases (% inhibition)
Format: biochemical
Conditions: 10 μM
Give bare numbers, in %.

Reference set, count: 3
>>> numeric_value("C#CCOc1ccc2c(C3=C(c4cn(C)c5ccc(Br)cc45)C(=O)NC3=O)coc2c1")
45
>>> numeric_value("COc1cccc2c(C3=C(c4cn(C)c5cc(I)c(F)cc45)C(=O)NC3=O)coc12")
6
>>> numeric_value("C#Cc1ccc2c(c1)c(C1=C(c3coc4ccccc34)C(=O)NC1=O)cn2C")
27

Value of measured inhibition at 10 µM for the entry `O=C1NC(=O)C(c2cn(CCCO)c3ccc(Br)cc23)=C1c1coc2ccccc12` : 92

----------
Molecular target: HER-1 (Homo sapiens, UniProt P00533)
Assay: Kinase panel (Novartis)
Type: biochemical
Measure Name: IC50 (µM)
One number for each entry, in µM.

Value of measured IC50 for the entry `Cn1cc(C2=C(c3coc4ccccc34)C(=O)NC2=O)c2ccc(O)cc21` : 6.3

----------
Target: CDK-4/cyclinD1 (Homo sapiens)
Sequence (P11802 whole entry, species assumed): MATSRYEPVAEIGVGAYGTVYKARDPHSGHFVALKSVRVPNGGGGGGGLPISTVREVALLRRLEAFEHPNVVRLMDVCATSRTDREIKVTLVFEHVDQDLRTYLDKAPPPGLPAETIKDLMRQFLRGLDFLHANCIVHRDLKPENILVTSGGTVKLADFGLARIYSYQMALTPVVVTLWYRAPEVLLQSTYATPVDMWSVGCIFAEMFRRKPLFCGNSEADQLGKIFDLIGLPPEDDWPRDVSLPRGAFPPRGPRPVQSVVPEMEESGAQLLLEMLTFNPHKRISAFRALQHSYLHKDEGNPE
Sequence (P24385 whole entry partner, species assumed): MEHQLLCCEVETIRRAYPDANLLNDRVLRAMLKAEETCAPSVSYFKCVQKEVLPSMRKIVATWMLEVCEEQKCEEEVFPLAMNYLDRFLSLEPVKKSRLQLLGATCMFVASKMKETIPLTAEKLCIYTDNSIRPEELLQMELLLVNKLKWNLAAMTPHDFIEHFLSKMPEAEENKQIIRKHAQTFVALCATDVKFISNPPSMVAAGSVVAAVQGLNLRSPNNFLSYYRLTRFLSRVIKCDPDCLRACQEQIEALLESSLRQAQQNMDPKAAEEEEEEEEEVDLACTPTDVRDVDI
Test: CDK panel (Reaction Biology)
Type: biochemical
Settings: tested at Reaction Biology, Inc.
Kindly supply the reported IC50 values for the records listed here.
Hi, when you answer, please include the unit after the number. Thanks!

Reference set, count: 3
>>> result("COCc1cccc2c(C3=C(c4coc5ccccc45)C(=O)NC3=O)cn(C)c12")
"8.62 µM"
>>> result("COc1cccc2c(C3=C(c4cn(C)c5cc(Cl)c(F)cc45)C(=O)NC3=O)coc12")
"59.5 µM"
>>> result("Cn1cc(C2=C(c3coc4cc(CO)ccc34)C(=O)NC2=O)c2cc(F)c(Cl)cc21")
"18.3 µM"

Would you kindly look at the next entry?
Value of measured IC50 for the entry `Cn1cc(C2=C(c3coc4cc(CO)ccc34)C(=O)NC2=O)c2cc(Br)ccc21` : 1.08 µM

----------
Target: UniProtKB O60674
Assay: Kinase panel (Novartis)
Assay type: biochemical
Kindly supply the reported IC50 values for the records listed here.

>>> result("Cn1cc(C2=C(c3coc4ccccc34)C(=O)NC2=O)c2cc(Br)ccc21")
"> 10 µM"

Form field, IC50 with UniProtKB O60674, item `Cn1cc(C2=C(c3coc4ccccc34)C(=O)NC2=O)c2ccc(O)cc21` : > 10 µM

----------
Biological target: Ret (Homo sapiens, UniProt P07949)
Experiment: Kinase panel (Novartis)
Type: biochemical
Kindly supply the reported IC50 values for the records listed here.

>>> result("Cn1cc(C2=C(c3coc4ccccc34)C(=O)NC2=O)c2cc(Br)ccc21")
"> 10 µM"

Would you kindly look at the next entry?
Value of measured IC50 for the entry `Cn1cc(C2=C(c3coc4ccccc34)C(=O)NC2=O)c2ccc(O)cc21` : 5 µM

----------
Kindly supply the reported IC50 values for the records listed here.
Target: CDK-5/P35 (Homo sapiens)
Sequence (Q00535 whole entry, species assumed): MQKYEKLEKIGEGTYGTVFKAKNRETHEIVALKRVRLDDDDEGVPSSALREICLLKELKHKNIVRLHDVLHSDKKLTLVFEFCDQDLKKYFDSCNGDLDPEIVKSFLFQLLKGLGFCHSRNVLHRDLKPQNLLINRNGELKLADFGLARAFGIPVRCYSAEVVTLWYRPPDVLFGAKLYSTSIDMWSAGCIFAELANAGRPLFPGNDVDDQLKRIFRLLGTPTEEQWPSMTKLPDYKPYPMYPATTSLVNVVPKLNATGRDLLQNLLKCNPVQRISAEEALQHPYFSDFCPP
Sequence (Q15078 2-307 partner limits assumed, species assumed): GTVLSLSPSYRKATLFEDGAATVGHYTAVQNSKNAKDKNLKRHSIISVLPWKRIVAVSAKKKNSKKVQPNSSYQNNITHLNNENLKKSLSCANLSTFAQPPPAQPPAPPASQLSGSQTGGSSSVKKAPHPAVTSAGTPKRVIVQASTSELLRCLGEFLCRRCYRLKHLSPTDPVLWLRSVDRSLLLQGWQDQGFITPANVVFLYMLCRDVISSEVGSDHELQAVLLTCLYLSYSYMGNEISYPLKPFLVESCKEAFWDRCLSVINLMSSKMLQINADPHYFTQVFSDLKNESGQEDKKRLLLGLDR
Test: CDK panel (Reaction Biology)
Type: biochemical
Conditions: tested at Reaction Biology, Inc.

>>> result("COCc1cccc2c(C3=C(c4coc5ccccc45)C(=O)NC3=O)cn(C)c12")
"12.7 µM"

Would you kindly look at the next entry?
Value of measured IC50 for the entry `COc1cccc2c(C3=C(c4cn(C)c5cc(Cl)c(F)cc45)C(=O)NC3=O)coc12` : 61.6 µM

----------
Biological target: CDK2 (Homo sapiens)
Assay: Inhibition of various kinases (% inhibition)
Assay type: biochemical
Conditions: 10 μM
Kindly supply the reported inhibition at 10 µM values for the records listed here.
One number for each entry, in %.

Reference set, count: 3
>>> numeric_value("O=C1NC(=O)C(c2cn(CCCO)c3ccc(Br)cc23)=C1c1coc2ccccc12 [Compound 21]")
95
>>> numeric_value("COc1cccc2c(C3=C(c4cn(C)c5cc(I)c(F)cc45)C(=O)NC3=O)coc12 [Compound 10]")
35
>>> numeric_value("C#CCOc1ccc2c(C3=C(c4cn(C)c5ccc(Br)cc45)C(=O)NC3=O)coc2c1 [Compound 23]")
66

Value of measured inhibition at 10 µM for the entry C#Cc1ccc2c(c1)c(C1=C(c3coc4ccccc34)C(=O)NC1=O)cn2C [Compound 36] : 100

----------
Biological target: CDK-2/cyclinE (Homo sapiens)
Experiment: CDK-2/CyclinE inhibition (Reaction Biology)
Format: biochemical
Settings: tested at Reaction Biology, Inc.
Kindly supply the reported IC50 values for the records listed here.
Numbers only, in nM.

>>> numeric_value("Cn1cc(C2=C(c3coc4ccc(F)cc34)C(=O)NC2=O)c2cc(Cl)ccc21 [Compound 27]")
1840
>>> numeric_value("Cn1cc(C2=C(c3coc4cc(CO)ccc34)C(=O)NC2=O)c2cc(F)ccc21 [Compound 7]")
237
>>> numeric_value("COc1cccc2c(C3=C(c4cn(C)c5cc(Cl)c(F)cc45)C(=O)NC3=O)coc12 [Compound 15]")
99000

Value of measured IC50 for the entry Cn1cc(C2=C(c3coc4cc(CO)ccc34)C(=O)NC2=O)c2cc(F)c(Cl)cc21 [Compound 13] : 11700

----------
Molecular target: CDK-9/cyclinT1 (Homo sapiens, UniProt P50750)
Sequence (P50750 whole entry, species assumed): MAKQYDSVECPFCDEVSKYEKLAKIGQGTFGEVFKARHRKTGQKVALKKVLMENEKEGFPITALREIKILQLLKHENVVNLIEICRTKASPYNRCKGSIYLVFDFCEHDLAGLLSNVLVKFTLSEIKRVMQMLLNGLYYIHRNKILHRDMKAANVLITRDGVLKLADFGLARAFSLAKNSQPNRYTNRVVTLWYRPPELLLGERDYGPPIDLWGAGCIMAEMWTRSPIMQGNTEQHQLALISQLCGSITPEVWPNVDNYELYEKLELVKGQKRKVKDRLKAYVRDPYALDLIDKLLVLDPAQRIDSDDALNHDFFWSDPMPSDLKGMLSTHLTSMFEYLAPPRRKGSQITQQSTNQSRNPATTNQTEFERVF
Sequence (O60563 whole entry partner, species assumed): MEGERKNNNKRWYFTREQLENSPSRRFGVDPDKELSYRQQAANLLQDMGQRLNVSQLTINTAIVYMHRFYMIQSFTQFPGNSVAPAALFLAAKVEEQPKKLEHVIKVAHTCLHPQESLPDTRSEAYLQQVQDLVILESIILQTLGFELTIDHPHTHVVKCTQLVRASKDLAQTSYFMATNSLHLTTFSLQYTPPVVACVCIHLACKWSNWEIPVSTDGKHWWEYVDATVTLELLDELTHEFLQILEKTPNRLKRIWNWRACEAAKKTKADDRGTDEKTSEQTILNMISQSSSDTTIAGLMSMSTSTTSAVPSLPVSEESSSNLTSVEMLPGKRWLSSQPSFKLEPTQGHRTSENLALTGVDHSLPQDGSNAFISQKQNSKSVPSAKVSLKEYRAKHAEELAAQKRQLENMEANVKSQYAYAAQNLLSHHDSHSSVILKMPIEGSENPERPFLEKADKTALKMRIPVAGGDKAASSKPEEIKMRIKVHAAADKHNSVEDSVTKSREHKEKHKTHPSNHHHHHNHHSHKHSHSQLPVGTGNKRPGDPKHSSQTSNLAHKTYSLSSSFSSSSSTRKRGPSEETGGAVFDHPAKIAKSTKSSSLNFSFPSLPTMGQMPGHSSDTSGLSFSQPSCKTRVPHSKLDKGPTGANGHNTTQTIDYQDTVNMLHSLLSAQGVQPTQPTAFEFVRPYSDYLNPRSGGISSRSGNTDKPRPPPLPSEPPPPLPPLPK
Assay: CDK panel (Reaction Biology)
Type: biochemical
Settings: tested at Reaction Biology, Inc.
Kindly supply the reported IC50 values for the records listed here.
Numbers only, in µM.

>>> numeric_value("COCc1cccc2c(C3=C(c4coc5ccccc45)C(=O)NC3=O)cn(C)c12")
16

Would you kindly look at the next entry?
Value of measured IC50 for the entry `Cn1cc(C2=C(c3coc4cc(CO)ccc34)C(=O)NC2=O)c2cc(F)c(Cl)cc21` : 5.4

----------
Target: CDK-2/cyclinA (Homo sapiens)
Assay: CDK panel (Reaction Biology)
Type: biochemical
Details: tested at Reaction Biology, Inc.
Measure Name: IC50 (µM)
Answers are plain numbers, in µM.

Reference set, count: 3
>>> numeric_value("Cn1cc(C2=C(c3coc4cc(CO)ccc34)C(=O)NC2=O)c2cc(Br)ccc21")
0.55
>>> numeric_value("COCc1cccc2c(C3=C(c4coc5ccccc45)C(=O)NC3=O)cn(C)c12")
4.09
>>> numeric_value("COc1cccc2c(C3=C(c4cn(C)c5cc(Cl)c(F)cc45)C(=O)NC3=O)coc12")
27.2

Would you kindly look at the next entry?
Value of measured IC50 for the entry `Cn1cc(C2=C(c3coc4cc(CO)ccc34)C(=O)NC2=O)c2cc(F)c(Cl)cc21` : 10.6

----------
Kindly supply the reported IC50 values for the records listed here.
Target: recombinant human His6-GSK-3β (Homo sapiens)
Construct: His6; purchased EMD Biosciences
Sequence (P49841 whole entry): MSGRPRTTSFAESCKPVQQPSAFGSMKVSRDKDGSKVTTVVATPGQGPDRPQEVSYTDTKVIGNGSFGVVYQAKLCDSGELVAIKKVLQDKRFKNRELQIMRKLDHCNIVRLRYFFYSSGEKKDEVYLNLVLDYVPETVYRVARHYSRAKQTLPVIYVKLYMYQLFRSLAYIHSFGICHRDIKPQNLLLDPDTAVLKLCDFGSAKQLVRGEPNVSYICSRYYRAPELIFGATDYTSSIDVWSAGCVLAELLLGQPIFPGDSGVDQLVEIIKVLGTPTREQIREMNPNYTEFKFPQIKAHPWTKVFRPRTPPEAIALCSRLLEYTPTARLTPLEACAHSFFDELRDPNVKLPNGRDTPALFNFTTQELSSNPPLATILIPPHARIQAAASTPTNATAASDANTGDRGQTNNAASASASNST
Assay: GSK-3β kinase assay, [γ32P] transfer to primed glycogen synthase peptide;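 note: phosphate incorporation quantified by liquid scintillation counting of the filters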
Type: biochemical
Conditions: 10 μM ATP; 10 μM pGSM peptide; 30 minutes at 30° C.; read-out: IC50 (nM), GSK-3β inhibition
Hi, when you answer, please include the unit after the number. Thanks!

>>> result("Cn1cc(C2=C(c3coc4ccc(F)cc34)C(=O)NC2=O)c2cc(C#CC3CC3)ccc21 [Compound 38]")
"16.2 nM"

Each compound below has a reported value. Please supply its IC50.
1. COc1ccc2c(c1)c(C1=C(c3coc4ccccc34)C(=O)NC1=O)cn2C [Compound 41]
2. N#Cc1ccc2c(c1)c(C1=C(c3coc4cc(F)c(F)cc34)C(=O)NC1=O)cn2CC1CC1 [Compound 35]

Ans.
["125 nM", "131 nM"]

Value of measured IC50 for the entry COc1cccc2c(C3=C(c4cn(C)c5ccccc45)C(=O)NC3=O)coc12 [Compound 4] : 180 nM

----------
Target: EphB4 (Homo sapiens, UniProt P54760)
Test: Kinase panel (Novartis)
Assay type: biochemical
Measure Name: IC50

>>> result("Cn1cc(C2=C(c3coc4ccccc34)C(=O)NC2=O)c2cc(Br)ccc21")
"> 10 µM"

Would you kindly look at the next entry?
Value of measured IC50 for the entry `Cn1cc(C2=C(c3coc4ccccc34)C(=O)NC2=O)c2ccc(O)cc21` : > 10 µM

----------
Kindly supply the reported IC50 values for the records listed here.
Molecular target: CDK-3/cyclinE (Homo sapiens, UniProt Q00526)
Conditions: read-out: IC50 (μM) CDK-3/cyclinE; tested at Reaction Biology, Inc.
Numbers only, in µM.

Each compound below has a reported value. Please supply its IC50.
1. COCc1cccc2c(C3=C(c4coc5ccccc45)C(=O)NC3=O)cn(C)c12
2. Cn1cc(C2=C(c3coc4cc(CO)ccc34)C(=O)NC2=O)c2cc(F)c(Cl)cc21

Ans.
1: 17.7; 2: 25.1

Data origin, for the record: patent US8207216B2
